- Test system: HeLa Kyoto
- assay.overview: solubility in G1/S (NP-40 vs SDS abundance) (log2 ratio); higher = more soluble
- measurement.setup: cell cycle stage: G1/S
assay.readout: solubility in G1/S (log2)

Lab request: please report solubility in G1/S (log2) under test system HeLa Kyoto for MGSAGLSRLHGLFAVYKPPGLKWKHLRDTVELQLLKGLNARKPPAPKQRVRFLLGPMEGSEEKELTLTATSVPSFINHPLVCGPAFAHLKVGVGHRLDAQASGVLVLGVGHGCRLLTDMYNAHLTKDYTVRGLLGKATDDFREDGRLVEKTTYDHVTREKLDRILAVIQGSHQKALVMYSNLDLKTQEAYEMAVRGLIRPMNKSPMLITGIRCLYFAPPEFLLEVQCMHETQKELRKLVHEIGLELKTTAVCTQVRRTRDGFFTLDSALLRTQWDLTNIQDAIRAATPQVAAELEKSLSPGLDTKQLPSPGWSWDSQGPSSTLGLERGAGQ [TRUB2];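 also: HeLa Kyoto cells arrested at G1/S by double thymidine block, proteins quantified by TMT10plex mass spectrometry in mild NP-40 versus SDS extracts, three biological replicates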
-0.103
